System: MS2 coat protein
Test: apparent Kd, MS2 coat protein; higher = weaker binding; RNA-MaP array; FMN 200 µM where present
Settings: designed as: ON switch for flavin mononucleotide; no ligand
Outcome measure: apparent Kd (nM)
Kindly provide the numeric value in nM only, without the unit symbol.

# Seq text, System name, Reading unit, apparent Kd
measured = [
    ("ACAUGAGGAUCACCCAUGUUCACAUAGGAUAUUGAUUAUAUUGGUUAUAGAAUAGUUAUAAUGCUCAAGAAGGAUGCCAGUUGU", "MS2 coat protein", "nM", 11),
    ("CGACACCAGACAGGAUAUGCUGGACUUUGUCCAGCAGAAGGGUCUAAACAUGAGGAUCACCCAUGUAUGGUGUCGAAAUUUAAU", "MS2 coat protein", "nM", 51.1),
    ("CUGCAACAUGAGGAUCACCCAUGUAACCCAAUUAUAGGAUAUGUGAUGGUGAUCGACAUGACAGAAGGGUGAUUGG", "MS2 coat protein", "nM", 38.8),
]

Alright, here's another sequence for you.
Request: Need apparent Kd of CGCUACGUUUCGUAGCAGCUAGGUGAGGAUAUUCAAUUUUUCACAUGAGGAUCACCCAUGUAUGUGAAGAAGGCGCCUAGAAAA , thanks.
Response: 11

###

System: MS2 coat protein
Experiment: apparent Kd, MS2 coat protein; higher = weaker binding; RNA-MaP array
Conditions: ligand present: flavin mononucleotide; designed as: ON switch for flavin mononucleotide
Each record here notes measured apparent Kd.
Use nM as the unit, but write only the number.

Example cases with answers are listed next.
# Seq text, Reading unit, apparent Kd
data = [
    ("GUAGUGCUAAGAGGAUAUACGUUCUGCACAUGAGGAUCACCCAUGUACAAGGAGCCCAACCGGCGGUAGAAGGCUUUGACAGGA", "nM", 11.3),
    ("UCACGUCGCCGAGGAUAUGAUUACCGCUCUCCAUCAGAAGGCGGCGCGUGGUCCACAACAUGAGGAUCACCCAUGUCGAUUGAG", "nM", 10.7),
    ("ACUAAACAUGAGGAUCACCCAUGUAAUUGAAGCUAAGGAUAUCAGAAGAAUGGUGAUUCAUGAGAAGGAAGCGAUU", "nM", 58.6),
]

Let us move to another entry and its apparent Kd.
Request: Requested read-out: apparent Kd. Entry: CGUUAAGAACAGAAGGCCGAGAUAAUGUUCAGCGGAGGAUAUGUGGAAGAUAGAACAUGAGGAUCACCCAUGUCAACUAGUACC
Response: 5.82

###

// reported apparent Kd per item
Tested on: MS2 coat protein
Experiment: apparent Kd, MS2 coat protein; higher = weaker binding; RNA-MaP array
Conditions: designed as: OFF switch for flavin mononucleotide; no ligand
Express your answer in nM, writing the number without its unit.

Worked set:
# Seq text, System name, Reported value
rows = [
    ("GCUCAUUGCGAGGAUAUUGGAAGAGUGUAAACUCAAGAAGGCGCAACAUGAGGAUCACCCAUGUGAACCCAAAU", "MS2 coat protein", 7.91),
    ("AGGUUACGUGUGAGGAUAUUAAGAUAUUAAAUUUAUAAGAAGGCACAUGAGGAUCACCCAUGUAUGACUUCCCA", "MS2 coat protein", 5.66),
    ("UAACCACCGCAGGAUAUGCUAUGUUCAGUGUCUGCAGAAGGGCGUACAUGAGGAUCACCCAUGUAGUGACCUCA", "MS2 coat protein", 95.2),
    ("CAUGCUUGCGAGGAUAUAAGGUUCUCCCUGUUCUUAGAAGGCGCAACAUGAGGAUCACCCAUGUUCCUACCGAA", "MS2 coat protein", 43),
    ("UCGUUGCCAUGAGGAUAUCGUGUCAAGACAGGCAAGUGACCGUACAUGAGGAUCACCCAUGUAAACGAGAAGGCAUAGUCAUGG", "MS2 coat protein", 17),
    ("CAUUGGGUCAGUUCGACAUGAGGAUCACCCAUGUAGUUAACGAGAAGGAGUACCAGCCUAAGUGACUAGGAUAUCGAUAAGUGG", "MS2 coat protein", 37.3),
]

Request: # apparent Kd lookup, item UUAGGUUAUAAAGUGACAUGAGGAUCACCCAUGUGCUCACAGAGAAGGUUAUACCUACAGGCUAUAAAGGAUAUCUCCUAAAUU
Response: 12.3

###

Tested on: MS2 coat protein
Assay: apparent Kd, MS2 coat protein; higher = weaker binding; RNA-MaP array; tryptophan 2.4 mM where present
Details: designed as: OFF switch for tryptophan; no ligand
Here, each record is paired with measured apparent Kd data.
# number only, unit nM dropped from output

# Seq text, Reported value
records = [
    ("ACCGAAAGCUCACAUGAGGAUCACCCAUGUCGAGGACCGGUACGGCCGCCACUCGGCAAAUAUAAGGGUGGACGCGUCUCUGCGU", 39),
]

In the following, a different sequence is considered.
Request: Query: apparent Kd; subject: CUCAUCCACGCGGCCGCCACUAUAUUGUGGUGUGAAUGUGACGUAUUACAUGAGGAUCACCCAUGUAGGACCGGGCGUGGAUGAG
Response: 75.4

###

Test system: MS2 coat protein
Assay: apparent Kd, MS2 coat protein; higher = weaker binding; RNA-MaP array; FMN 200 µM where present
Conditions: ligand present: flavin mononucleotide; designed as: ON switch for flavin mononucleotide
Outcome measure: apparent Kd (nM)
Kindly answer with a numeric value in nM, unit omitted.

# Seq text, Outcome measure, Reported value
records = [
    ("UUGGCAACGUAGAAGGGUGACAUGAGGAUCACCCAUGUGCCGAUAUAUCUCGAGAUAUGUCGGCCACAGGAUAUACGUGCCAUC", "apparent Kd", 35.2),
    ("GGCUAACGGGCUAACAUGAGGAUCACCCAUGUGGACUCAUGGUAGGAUAUGCUGUACAAAGUACAGCAGAAGGGCCGGUGAGCC", "apparent Kd", 978),
    ("GUAGCAUGCCAAGGAUAUUCAUAUAGUAGGCAAACAUGAGGAUCACCCAUGUAGUGAGAGCCCUGGGAGAAGGUGGGAUGCUAC", "apparent Kd", 16.1),
    ("GUAGGCGACCAGAAGGGUGACAUGAGGAUCACCCAUGUAGAUGUGUUCCCGCUUGGGAGCCGUCCACAGGAUAUGGUUGGUUAU", "apparent Kd", 74.5),
    ("GCGAUUAAGUAGAAGGUACGUUAUAAGUCAAUGUAAGGAUAUACUGACAUGAGGAUCACCCAUGUUUAAUUUGUUUACUGUCGC", "apparent Kd", 5.7),
]

Request: # query: apparent Kd | item UGAUCUUACAUGAGGAUCACCCAUGUAGACCAGUAACUAACCAGAAGGCACGUAGAGUAAAACAGUGAGGAUAUGGAUGACAUA | system: MS2 coat protein
Response: 5.5

Request: Param readout = apparent Kd; param system = MS2 coat protein; param query = CGCUACGUUUCGUAGCAGUGUCAUCGAGAAGGCCCUGACAUGAGGAUCACCCAUGUUCCAAAAUGGGAGGAUAUCGAUGAUACA ; response: value
Response: 4.99

###

Tested on: MS2 coat protein
Assay: apparent Kd, MS2 coat protein; higher = weaker binding; RNA-MaP array
Details: ligand present: flavin mononucleotide; designed as: OFF switch for flavin mononucleotide
Recorded apparent Kd for the following sequences
Give just the numeric value; nM need not be written.

As a guide, the following entries are already answered.
# Seq text, Outcome measure, Reported value
data = [
    ("UGUUUUAAAGAGGAUAUGACAACGGUUCCACCGUCAGAAGGCUUUACAUGAGGAUCACCCAUGUACUGGAGUGA", "apparent Kd", 81.9),
    ("UAACCACCGCAGGAUAUGCUAUGUUCAGUGUCUGCAGAAGGGCGUACAUGAGGAUCACCCAUGUAGUGACCUCA", "apparent Kd", 110),
    ("UUUGCUACCUAGAAGGCUGACGAGACAUGAGGAUCACCCAUGUUGGAAAUUCUUACGGCAAUGGCAGAGGAUAUAGGACGAAAA", "apparent Kd", 11.3),
    ("AGGUUACGUGUGAGGAUAUUAAGAUAUUAAAUUUAUAAGAAGGCACAUGAGGAUCACCCAUGUAUGACUUCCCA", "apparent Kd", 6.77),
    ("CGACAUUCAGGAUAUACAUGAGGAUCACCCAUGUUGAGAAGCACAAGAUACCAUAAAAGUAGAAGGGAACAAAA", "apparent Kd", 9.81),
    ("AGUGGUGGGAAGGAUAUCUUCCGGCGUUAGCCUAGAGAAGGUCCCACAUGAGGAUCACCCAUGUUGACAUCGGU", "apparent Kd", 183),
]

Now take the following sequence into account.
Request: Which apparent Kd reading was recorded for the sequence UUAGGUUAUAAAGUGACAUGAGGAUCACCCAUGUGCUCACAGAGAAGGUUAUACCUACAGGCUAUAAAGGAUAUCUCCUAAAUU ?
Response: 8.73
